These entries and their values trace back to patent US20250320312A1.

Target: T1, Peptide 8: Biotin-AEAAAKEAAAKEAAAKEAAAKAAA-Tyr-acid (N-terminal biotin; C-terminal acid; no PC)
T1 construct: control peptide without PC
T1 peptide: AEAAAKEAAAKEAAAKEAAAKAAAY
Experiment: scFv ELISA
recorded_metric: OD450 (OD450)
Report the value in OD450 with no unit label.

Study these solved cases before continuing.
{"columns": ["binder", "measurement_unit", "reported"],
 "data": [
  ["PcOxP_DB01_G03 (scFv, V domains shown, scFv in periplasmic extract) VH: EVQLLESGGGLVQPGGSLRLSCAASGFTFSDGYMEWVRQAPGKGLEWVAASRNKANDYTTEYADSVKGRFTISRDNSKNTLYLQMNSLRAEDTAVYYCARDYYGSSYWYFDVWGQGTLVTVSS VL: DIVMTQSPDSLAVSLGERATINCTASTSLYSSKHKVHYLAWYQQKPGQPPKLLIYGASNRYIGVPDRFSGSGSGTDFTLTISSLQAEDVAVYYCAQFYTYPLTFGGGTKVEIK", "OD450", 0.05],
  ["PcOxP_DB01_D12 (scFv, V domains shown, scFv in periplasmic extract) VH: EVQLLESGGGLVQPGGSLRLSCAASGFTFSDYYMEWVRQAPGKGLEWVAASRNKYNDYTTEYADSVKGRFTISRDNSKNTLYLQMNSLRAEDTAVYYCARDYYGSSYWYFDVWGQGTLVTVSS VL: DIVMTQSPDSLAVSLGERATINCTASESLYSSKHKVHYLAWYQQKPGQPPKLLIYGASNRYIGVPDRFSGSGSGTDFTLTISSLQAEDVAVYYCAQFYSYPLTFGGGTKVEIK", "OD450", 0.05],
  ["PcOxP_DB01_A08 (scFv, V domains shown, scFv in periplasmic extract) VH: EVQLLESGGGLVQPGGSLRLSCAASGFTQSDFYMEWVRQAPGKGLEWVAAIRNKANSYTTEYADSVKGRFTISRDNSKNTLYLQMNSLRAEDTAVYYCARDYYGSSYWYFDVWGQGTLVTVSS VL: DIVMTQSPDSLAVSLGERATINCTASESVYSSKNKKHYLAWYQQKPGQPPKLLIYGASNRYIGVPDRFSGSGSGTDFTLTISSLQAEDVAVYYCAQFYSYPLTFGGGTKVEIK", "OD450", 0.05],
  ["PcOxP_DB03_G10 (scFv, V domains shown, scFv in periplasmic extract) VH: EVQLLESGGGLVQPGGSLRLSCAASGFTFSDAYMEWVRQAPGKGLEWVAASRNKANDYTTEYADSVKGRFTISRDNSKNTLYLQMNSLRAEDTAVYYCARDYYGSSYWYFDVWGQGTLVTVSS VL: DIQMTQSPSSLSASVGDRVTITCTASESLYSSKHKVHYLAWYQQKPGKAPKLLIYGASNRQIGVPSRFSGSGSGTDFTLTISSLQPEDFATYYCAQFYTYPLTFGGGTKVEIK", "OD450", 0.05],
  ["PcOxP_DB02_A05 (scFv, V domains shown, scFv in periplasmic extract) VH: EVQLLESGGGLVQPGGSLRLSCAASGFTGSDFYMEWVRQAPGKGLEWVAASRNKWNDYTTEYADSVKGRFTISRDNSKNTLYLQMNSLRAEDTAVYYCARDYYGSSYWYFDVWGQGTLVTVSS VL: DIVMTQSPDSLAVSLGERATINCTASESLYSSKHKVHYLAWYQQKPGQPPKLLIYGAGNRYIGVPDRFSGSGSGTDFTLTISSLQAEDVAVYYCAQFYSYPLTFGGGTKVEIK", "OD450", 0.04]
]}

Okay, next one:
Need OD450, item PcOxP_DB02_C04 (scFv, V domains shown, scFv in periplasmic extract) VH: EVQLLESGGGLVQPGGSLRLSCAASGQTFSDFYMEWVRQAPGKGLEWVAASRNKANGYTTEYTDSVKGRFTISRDNSKNTLYLQMNSLRAEDTAVYYCARDYYGSSYWYFDVWGQGTLVTVSS VL: DIVMTQSPDSLAVSLGERATINCTASESLYSSKHKVHYLAWYQQKPGQPPKLLIYGANNRYIGVPDRFSGSGSGTDFTLTISSLQAEDVAVYYCAQFYSYPLTFGGGTKVEIK
0.05
